Here the recorded Activity is given for each entry.
# Test system: Mus musculus
# procedure_text: Antiamnesic activity in scopolamine-induced mouse assessed as latency time to enter dark room in retention session at 0.01 mg/kg, ip treated 20 mins before training session by passive avoidance test
# Type: functional
# experimental_conditions: route intraperitoneal
Numeric answer only, unit s assumed.

[[record]]
test_smiles = "CC(C)S(=O)(=O)N(C)c1ccc(N(C)C(=O)c2ccccc2)cc1"
assay_result = 91.8

[[record]]
test_smiles = "CC(=O)NC1CCN(S(=O)(=O)c2ccc(F)cc2)CC1"
assay_result = 90.6

[[record]]
test_smiles = "CC(C)S(=O)(=O)N(C)c1ccc(NC(=O)c2ccccc2)cc1"
assay_result = 66.7


// next entry
-- ask Tell me the measured Activity of CC(C)S(=O)(=O)N(C)c1ccc(N(C)S(=O)(=O)c2ccc(F)cc2)cc1 , please.
-- reply 70.5
